Listed here are compounds together with their documented TGI.
System: IGROV1 ovarian
assay.info: NCI tumour cell line growth inhibition, 48 h

compound	readout.qualifier	TGI (µM)
COc1ccc2oc(=O)c(-c3csc(C)n3)cc2c1	>	100
COc1cc2nc3cc([N+](=O)[O-])ccc3c(NCCNCC(C)(C)O)c2cc1OC	=	2.16
O=C(Nc1nc2c(ncn2C2OC(CO)C(O)C2O)c(=O)[nH]1)c1ccccc1 (stereo not given)	>	100
COc1ccccc1C[C@@H]1OC2(C=CC(=O)C=C2)O[C@H]1Cc1ccccc1OC	=	13.6
O=C(Nc1ccccc1)c1cc(S(=O)(=O)N2CCNNC2=O)c(S)cc1Cl	>	100
CC(SC(=O)Nc1ccc(N=Nc2ccccc2)cc1)C(=O)O (stereo not given)	>	100
CC(=O)[CH-]C(=O)c1ccccc1.CC(=O)[CH-]C(=O)c1ccccc1.C[C@]12CCC(=O)C=C1CC[C@@H]1C2CC[C@@]2(C)C1CC[C@]2(C)[O-].C[C@]12CCC(=O)C=C1CC[C@@H]1C2CC[C@@]2(C)C1CC[C@]2(C)[O-].Cl.[Ti+4] (stereo not given in full)	=	46.1
COc1cc(C2c3cc4c(cc3OC(NCCO)C2C)OCO4)cc(OC)c1OC (stereo not given)	>	100
CC1=C(Nc2ccc(N3CCN(C)CC3)cc2)C(=O)c2cncnc2C1=O	=	5.17
C[C@@H]1S[C@H](c2c(Cl)cccc2Cl)N2Cc3ccccc3N=C12	>	100
O=C(OCC(Cl)(Cl)Cl)O[C@@H]1CCCC1(c1ccccc1)c1ccccc1	>	100
O=C(CC(Cl)=C(Cl)Cl)c1cccc(Cl)c1Cl	>	100
CN(Cc1cnc2nc(N)nc(N)c2n1)c1ccc(C(=O)NC(CCC(=O)O)C(=O)O)cc1Br (stereo not given)	=	1.01
CCOC(=O)N(c1ccccc1)N(CC)C(=O)/C(C)=N/Nc1ccc([N+](=O)[O-])cc1	=	33
CC1(C)CC(=O)C2=C(C1)OC1=C(CC(C)(C)CC1=O)C2c1ccccc1[N+](=O)[O-] (stereo not given)	>	100

* * *

Test system: U251 CNS

compound	GI50
Cc1nc2ccccc2c(/C=C/c2ccc(Cl)cc2)c1C(=O)/C=C/c1ccc(Cl)cc1	1390 nM
COc1ccc(/C(C#N)=C2C=C/C(=N/O)c3ccccc3\2)cc1	446 nM
CCCCCCCCCCCCCC[C@@H](O)[C@H]1CC[C@H]([C@H]2CC[C@H]([C@H](O)CCCCCC[C@@H](O)CC3=C[C@H](C)OC3=O)O2)O1	2060 nM
CN(Cc1cnc2nc(N)nc(N)c2n1)c1ccc(C(=O)NC(CCC(=O)O)C(=O)O)cc1Br (centres undefined)	< 13.4 nM

* * *

Test system: DMS 273 small cell lung
assay.info: NCI tumour cell line growth inhibition, 48 h

compound	TGI
O=C(Nc1nc2c(ncn2C2OC(CO)C(O)C2O)c(=O)[nH]1)c1ccccc1 (stereo not drawn)	> 100 µM
CC(=O)C1=C(O)C2C3c4c[nH]c5cccc(c45)CC3C(C)(C)N2C1=O (stereo not drawn)	> 100 µM
CC1(c2ccc(Cl)cc2)C2C(=O)NC(=O)C1C(=O)NC2=O (stereo not drawn)	> 100 µM
CC(C)(C)C(C#N)(C#N)c1ccc(C(C#N)(C#N)C(C)(C)C)nn1	> 100 µM
CSC(=Nc1ccccc1)/N=C(\SCc1ccccc1)N(C)C	2.57 µM
ClC(Cl)[Si]12OCCN(CCO1)CCO2	> 100 µM
CC(=O)OC1COC(n2c(=S)n(-c3ccccc3)c(=O)c3ccccc32)C(OC(C)=O)C1OC(C)=O (stereo not drawn)	> 100 µM
Cc1cc(=O)[nH]c(NN2C(Cl)C(=O)C2c2cccc(Cl)c2)n1 (stereo not drawn)	33.9 µM
CCCCCCC[CH2][Sn]1([CH2]CCCCCCC)[O]C(=O)c2cccnc2[O]1	> 100 µM
Nc1ncnc2c1ncn2C1CC(OCc2ccccc2[N+](=O)[O-])C(CO)O1 (stereo not drawn)	> 50 µM
Cc1ccc(S(=O)(=O)N/N=C(/c2nc3ccc([N+](=O)[O-])cc3[nH]c2=O)C(O)c2ccc(C(O)/C(=N\NS(=O)(=O)c3ccc(C)cc3)c3nc4ccc([N+](=O)[O-])cc4[nH]c3=O)cc2)cc1 (stereo not drawn)	> 100 µM
Nc1c(Cl)ncnc1NCCCNc1ncnc(Cl)c1N	> 100 µM
CCOC(=O)C1(C)CCCCC(=O)N1 (stereo not drawn)	> 100 µM

Entry source: PubChem BioAssay (NCI)
